Cited source: ChEMBL document CHEMBL3400121

assaySummary: Anticancer activity against human EC109 cells assessed as inhibition of proliferation after 72 hrs by MTT assay
Type: functional, cell-based
conditionNotes: ECa-109, 72 h
measuredEndpoint: pIC50
// pIC50 is dimensionless: -log10 of concentration (M)

Cc1ccc(-c2nc(SCc3cn(CC(=O)NC(=O)Nc4ccccn4)nn3)nc(Nc3ccc(C(C)C)cc3)c2C#N)cc1 : 5.13
COc1ccccc1Nc1nc(SCc2cn(CC(=O)NC(=O)Nc3ccccn3)nn2)nc(-c2ccc(C)cc2)c1C#N : 5.11

Request: Could you share which pIC50 value was measured for Cc1ccc(Nc2nc(SCc3cn(CC(=O)NC(=O)Nc4ccccn4)nn3)nc(-c3ccc(Br)cc3)c2C#N)cc1 ?
Response: 5.10

Request: Could you share which pIC50 value was measured for COc1cc(-c2nc(SCc3cn(CC(=O)NC(=O)Nc4ccccn4)nn3)nc(Nc3ccc(C)cc3)c2C#N)cc(OC)c1OC ?
Response: 4.67
